type: in vivo, human; conditions: both, human, in vivo, T1/2
Property: half-life (h)
Give just the number in h; leave the unit off.

Quick note, half-life for c1ccc2c(c1)cc1ccc3cccc4ccc2c1c34 [[^14C]-BaP, benzo[a]pyrene] landed at 4.78

###

format: in vivo, human; conditions: both, human, in vivo, Tmax
Property: Tmax (h)
Give just the number in h; leave the unit off.

Quick note, Tmax for c1ccc2c(c1)cc1ccc3cccc4ccc2c1c34 [[^14C]-BaP, benzo[a]pyrene] landed at 1.1
